Cited source for all entries: patent US20090291081A1

# Measured Target: T1, human IL-1α (human, UniProt P01583 113-271)
# T1 construct: also called IL-1alpha; hIL-1α
# T1 sequence (looked up): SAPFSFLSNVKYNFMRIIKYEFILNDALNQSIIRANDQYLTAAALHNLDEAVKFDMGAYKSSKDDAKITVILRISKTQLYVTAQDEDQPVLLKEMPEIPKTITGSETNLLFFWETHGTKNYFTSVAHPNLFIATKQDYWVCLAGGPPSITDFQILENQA
# Experiment Notes: Table 62 IC50; RBA presumed
Could you please report measured pIC50 for the items listed next?
Just so you know, pIC50 here is -log10 of the concentration in molar units; reply with that number alone.

Find the recorded pIC50 belonging to ABT1-95-11 (other, VK dAb) VL: DIQMTQSPSSLSASVGDRVTITCRASQPIQGNLRWYQQKPGIAPKLLIYSSSYLERGVPSRFSGSGSGTDFTLTISSLHPEDLATYHCQQGYRWPVTFGQGTKVEIKR and report it.
9.05

Let us now turn to ABT1-95-67 (other, VK dAb) VL: DIQMTQSPSSLSASVGDRVTITCRASQPIVRNLRWYQQKPGKAPKLLIYASSYLEPGVPSRFSGSGSGTDFTLTISSLQPEDFATYHCQQGYRWPVTFGQGTKVEIKR
10.00

Let us now turn to ABT1-6-15 (other, VH dAb) VH: EVQLLESGGGLVQPGGSLRLSCAASGFTFVRYDMAWVRQAPGKGLEWVSSINKSGALTSYADSVKGRFTISRDNSKNTLYLQMNSLRAEDTAVYYCAKGWASFDYWGQGTLVTVSS
6.70

Let us now turn to ABT1-95-64 (other, VK dAb) VL: DIQMTQSPSSLSASVGDRVTITCRASQPIVRNLRWYQQKPGKAPKLLVHSSSYLEPGVPSRFSGSGSGTDFTLTISSLQPEDFATYHCQQGYRWPVTFGQGTKVEVKR
8.52

Let us now turn to ABT1-152 (other, VK dAb) VL: DIQMTQSPSSLSASVGDRVTITCRASQSISSYLNWYQQKPGKAPKLLIGGRSGLQSGVPSRFSGSGSGTDFTLTIGSLQPEDFATYYCMQWYRAPSTFGQGTKVEIKRAAAEQKLISEED
6.52

Let us now turn to ABT1-141-23 (other, VK dAb) VL: DIQMTQSPSSLSASVGDRVTITCRASQWIQKQLAWYQQKPGKAPKLLIYSSSYLQSGVPSRFSGSGSGTDFTLTISSLQPEDFATYYCQQQMQPPRTFGQGTKVEIKR
7.10
